assay: Volume of distribution at steady state in Sprague-Dawley rat at 1 mg/kg, iv; format: ADME, organism-based; set-up: dose 1 mg/kg, route intravenous; conditions: in vivo, read-out: Vdss
PROPERTY NAME: Vd (L/kg)

[[record]]
compound_structure = "COC(=O)N[C@H](C(=O)N1CCC[C@H]1c1ncc(-c2ccc(-c3ccc(-c4cnc([C@@H]5[C@H]6CC[C@H](C6)N5C(=O)[C@@H](NC(=O)OC)C(C)C)[nH]4)cc3)cc2)[nH]1)C(C)C"
unit_name = "L/kg"
observed_result = 0.98

[[record]]
compound_structure = "COC(=O)N[C@H](C(=O)N1CCC[C@H]1c1ncc(-c2ccc(-c3ccc(-c4ccc5nc([C@@H]6[C@H]7CC[C@H](C7)N6C(=O)[C@@H](NC(=O)OC)C(C)C)[nH]c5c4)cc3)cc2)[nH]1)C(C)C"
unit_name = "L/kg"
observed_result = 1.81

[[record]]
compound_structure = "COC(=O)N[C@H](C(=O)N1CCC[C@H]1c1ncc(-c2ccc3c(c2)C(F)(F)c2cc(-c4ccc5nc([C@@H]6CCCN6C(=O)[C@@H](NC(=O)OC)C(C)C)[nH]c5c4)ccc2-3)[nH]1)C(C)C"
unit_name = "L/kg"
observed_result = 0.93

[[record]]
compound_structure = "COC(=O)N[C@H](C(=O)N1CCC[C@H]1c1ncc(-c2ccc(-c3ccc(-c4ccc5nc([C@@H]6CCCN6C(=O)[C@@H](NC(=O)OC)C(C)C)[nH]c5c4)cc3)cc2)[nH]1)C(C)C"
unit_name = "L/kg"
observed_result = 1.76

[[record]]
compound_structure = "COC(=O)N[C@H](C(=O)N1CC2(CC2)C[C@H]1c1nc(-c2ccc3c(c2)C(F)(F)c2cc(-c4ccc5[nH]c([C@@H]6[C@H]7CC[C@H](C7)N6C(=O)[C@@H](NC(=O)OC)C(C)C)nc5c4)ccc2-3)c[nH]1)C(C)C"
unit_name = "L/kg"
observed_result = 2.66


====

test: Plasma concentration in fasted healthy human at 10 mg/kg, po at 24 hrs; assay type: ADME, organism-based; parameters: dose 10 mg/kg, route oral
PROPERTY NAME: concentration at 24 h (nM)

[[record]]
compound_structure = "COC(=O)N[C@H](C(=O)N1CC2(CC2)C[C@H]1c1nc(-c2ccc3c(c2)C(F)(F)c2cc(-c4ccc5[nH]c([C@@H]6[C@H]7CC[C@H](C7)N6C(=O)[C@@H](NC(=O)OC)C(C)C)nc5c4)ccc2-3)c[nH]1)C(C)C"
unit_name = "nM"
observed_result = 7.94


====

assay: AUClast in fasted healthy human at 10 mg/kg, po; format: ADME, organism-based; set-up: time 0 - last, dose 10 mg/kg, route oral; details: plasma
PROPERTY NAME: AUC(0-t) (µM·h)

[[record]]
compound_structure = "COC(=O)N[C@H](C(=O)N1CC2(CC2)C[C@H]1c1nc(-c2ccc3c(c2)C(F)(F)c2cc(-c4ccc5[nH]c([C@@H]6[C@H]7CC[C@H](C7)N6C(=O)[C@@H](NC(=O)OC)C(C)C)nc5c4)ccc2-3)c[nH]1)C(C)C"
observed_result = 0.558


====

assay: Volume of distribution at steady state in beagle dog at 0.2 mg/kg, iv; assay type: ADME, organism-based, Canis lupus familiaris; design: dose 0.2 mg/kg, route intravenous; conditions: in vivo, read-out: Vdss
Answer f if Vd is under 2 L/kg, and t if it is 2 L/kg or more.

[[record]]
compound_structure = "COC(=O)N[C@H](C(=O)N1CCC[C@H]1c1ncc(-c2ccc(-c3ccc(-c4ccc5nc([C@@H]6CCCN6C(=O)[C@@H](NC(=O)OC)C(C)C)[nH]c5c4)cc3)cc2)[nH]1)C(C)C"
assigned_label = "t"

[[record]]
compound_structure = "COC(=O)N[C@H](C(=O)N1CCC[C@H]1c1ncc(-c2ccc(-c3ccc(-c4cnc([C@@H]5[C@H]6CC[C@H](C6)N5C(=O)[C@@H](NC(=O)OC)C(C)C)[nH]4)cc3)cc2)[nH]1)C(C)C"
assigned_label = "f"

[[record]]
compound_structure = "COC(=O)N[C@H](C(=O)N1CC2(CC2)C[C@H]1c1nc(-c2ccc3c(c2)C(F)(F)c2cc(-c4ccc5[nH]c([C@@H]6[C@H]7CC[C@H](C7)N6C(=O)[C@@H](NC(=O)OC)C(C)C)nc5c4)ccc2-3)c[nH]1)C(C)C"
assigned_label = "f"

